These measurements were taken from ChEMBL document CHEMBL1201862.

- Test system: MDA-MB-435
- method-summary: NCI tumour cell line growth inhibition, 48 h
Activity calls are given as the source filed them. Rule as the data show it: active = GI50 up to about 1.1 µM and inactive = higher.
readout-label: GI50

Known GI50 results, listed for orientation:
{"columns": ["compound", "experimental-value"],
 "data": [
  ["[N-]=[N+]=CC(=O)OC1CCOCC1", "> 100 µM (inactive)"],
  ["Nc1nc(CCl)nc(N2CCOCC2)n1", "29.2 µM (inactive)"],
  ["O=c1n(-c2ccc(Cl)c(Cl)c2)c(=O)n(-c2ccc(Cl)c(Cl)c2)c(=O)n1-c1ccc(Cl)c(Cl)c1", "3.93 µM (inactive)"],
  ["COc1ccccc1NC(=O)CC(=O)N1N=C(N2c3ccccc3Sc3ccccc32)CC1c1ccccc1 (stereo not given)", "> 100 µM (inactive)"]
]}

Continue with the compound presented below.
QUERY: Can you look up the measured GI50 of COc1cc2c(c(OC)c1OC)-c1c(cc3c(c1OC)OCO3)CC(C)C(C)(O)C2OC(=O)c1ccccc1 (stereo not given) for me?
RESULT: 55 µM (inactive)

====

- Test system: A549
- method-summary: NCI tumour cell line growth inhibition, 48 h
The source made the active and inactive calls. No stated cut-off is given here; in the data, active = GI50 up to about 1.1 µM and inactive = higher.
readout-label: GI50

{"columns": ["compound", "GI50"],
 "data": [
  ["O=C(/C=C/c1ccccc1)CC1OC(=O)c2ccccc21 (stereo unspecified)", "> 100 µM (inactive)"],
  ["O=C(O)[C@@H]1OCCOCCO[C@@H](C(=O)O)[C@H](C(=O)O)OCCOCCO[C@H]1C(=O)O", "> 100 µM (inactive)"],
  ["CSc1cc(Cl)c(C)cc1S(=O)(=O)NC(=O)NNc1ccc(Cl)cc1", "> 100 µM (inactive)"],
  ["COc1ccc(/N=N/c2c(O)ccc3ccccc23)cc1", "17.9 µM (inactive)"],
  ["C[N+]1(C)CCOC(O)(c2ccccc2)C1 (stereo unspecified)", "> 100 µM (inactive)"]
]}

QUERY: State its GI50 on A549: COc1ccc(N2C(=O)C3c4[nH]c5ccc(OCc6ccccc6)cc5c4C4CCC(c5ccccc5)CC4C3C2=O)cc1 (stereo unspecified)
RESULT: 9.64 µM (inactive)

QUERY: State its GI50 on A549: Nc1nc2cc(COc3ccc(C(=O)O)cc3)ccc2nc1-c1ccccc1
RESULT: > 10 µM (inactive)

QUERY: State its GI50 on A549: CC1(C)C2CCC1(C)[C@H](n1c(=O)n([C@@H]3CC4CCC3(C)C4(C)C)c(=O)n([C@@H]3CC4CCC3(C)C4(C)C)c1=O)C2
RESULT: 31.8 µM (inactive)

QUERY: State its GI50 on A549: O=C(O)c1ccc(Nc2cnc3ccc(C(F)(F)F)cc3n2)cc1
RESULT: 13.4 µM (inactive)

QUERY: State its GI50 on A549: Cc1cc(C(=O)NCCN(C)C)c2nc3ccccc3nc2c1
RESULT: 3.88 µM (inactive)

QUERY: State its GI50 on A549: Nc1nc(Cl)cc(NCC2(CO)CCC2)n1
RESULT: > 100 µM (inactive)

QUERY: State its GI50 on A549: CN(C)P(=O)(Oc1ccc(CC(NC(=O)OCc2ccccc2)C(=O)OCc2ccccc2)cc1)N(C)C (stereo unspecified)
RESULT: 19.2 µM (inactive)

QUERY: State its GI50 on A549: COc1ccc2[nH]c(CCNC(=O)c3cc([N+](=O)[O-])cc([N+](=O)[O-])c3)cc2c1
RESULT: > 100 µM (inactive)

====

- Tested on: Malme-3M
- method-summary: NCI tumour cell line growth inhibition, 48 h
Activity calls are given as the source filed them. Rule as the data show it: active = GI50 up to about 1.1 µM and inactive = higher.
Assign a class; possible classes are active, inactive

// below: answered compounds
{"columns": ["compound", "label"],
 "data": [
  ["CC(=O)C1(c2ccccc2)CCN(Cn2sc3nc(C)cc(C)c3c2=O)CC1", "inactive"],
  ["CC/C(Cl)=N\\OC(=O)Nc1ccc(C#N)cc1", "inactive"],
  ["CC1CC(c2ccc(Cl)cc2)=Nc2ccccc2S1 (configuration not stated)", "inactive"],
  ["C=C1CC[C@@]2(OC1)OC1C[C@H]3[C@@H]4CC=C5C[C@@H](O)CC(OC6OCC(OC(=O)[C@@H](O)[C@@H](C)CC)C(OC(C)=O)C6OC6OC(C)C(O)C(O)C6O)[C@]5(C)[C@H]4CC[C@]3(C)C1[C@@H]2C (some centres not stated)", "inactive"],
  ["Clc1ccc2c(c1)N(CCCN1CCCC13CCCCC3)c1ccccc1S2", "inactive"]
]}

QUERY: What classification did COc1cc2c(cc1OC)C1=Cc3ccc(OC)c(OC)c3C(C#N)N1CC2 (configuration not stated) end up with in this test?
RESULT: inactive

QUERY: What classification did COC(=O)c1c(C)cccc1C1CN=NC12Cc1ccc(C)c(C)c1C2=O (configuration not stated) end up with in this test?
RESULT: inactive

QUERY: What classification did CC(=O)NNC1=NN(C(C)=O)C2(S1)C(=O)Nc1ccc(C)cc12 (configuration not stated) end up with in this test?
RESULT: inactive

====

- System: 786-0
- method-summary: NCI tumour cell line growth inhibition, 48 h
Activity calls are given as the source filed them. No stated cut-off is given here; in the data, active = GI50 up to about 1.1 µM and inactive = higher. Where a SMILES comes first, the peptide text is derived from it. [ ]: non-standard residue; d: D form. The star is where a group is joined. ξ: configuration not given here. ξPhe(4-NO2) = NC(Cc1ccc([N+](=O)[O-])cc1)C(=O)O; Boc = CC(C)(C)OC(=O)*; OBn = c1ccc(CO*)cc1
Assign a class; possible classes are T = active, F = inactive

// below: answered molecules
{"columns": ["molecule", "target-or-test-system", "label"],
 "data": [
  ["C=C(Cl)C(Cl)(CBr)CCCC(C)C (stereo unspecified)", "786-0", "F"],
  ["C/N=c1/oc2ccccc2cc1C(N)=O", "786-0", "F"],
  ["CC1=CC2(O)OC3(CC2=C(C)C)C(C)CCC13 (stereo unspecified)", "786-0", "F"]
]}

QUERY: What classification did COc1ccc(N2C(=O)C3c4[nH]c5ccc(OCc6ccccc6)cc5c4C4CCC(c5ccccc5)CC4C3C2=O)cc1 (stereo unspecified) end up with in this test?
RESULT: F

QUERY: What classification did COC(=O)c1cc2c(cc1CC1Cc3cc4c(cc3C1)CCC4)CCC2 end up with in this test?
RESULT: F

QUERY: What classification did CC/C(Cl)=N\OC(=O)Nc1ccc(C#N)cc1 end up with in this test?
RESULT: F

QUERY: What classification did O=C(O)CSc1nnc2c3ccccc3c3ccccc3c2n1 end up with in this test?
RESULT: F

QUERY: What classification did CC(C)(C)OC(=O)NC(Cc1ccc([N+](=O)[O-])cc1)C(=O)NCC(=O)OCc1ccccc1 (stereo unspecified) (Boc-[ξPhe(4-NO2)]-Gly-OBn) end up with in this test?
RESULT: F

QUERY: What classification did N/N=C1\C(=O)N(Cc2ccccc2)C(=O)C1C(=O)NCc1ccccc1 (stereo unspecified) end up with in this test?
RESULT: F

QUERY: What classification did CCOC(=O)C(=O)C(CCC(=O)c1ccc2ccccc2c1O)C(=O)OCC (stereo unspecified) end up with in this test?
RESULT: F

QUERY: What classification did O=C1c2ccccc2OP(=O)(OCC(F)(F)F)OC1(C(F)(F)F)C(F)(F)F (stereo unspecified) end up with in this test?
RESULT: F

====

- Test system: RPMI-8226
- method-summary: NCI tumour cell line growth inhibition, 48 h
Activity calls are given as the source filed them. Cut-off read from the data, not from the text of the source: active = GI50 up to about 1.1 µM and inactive = higher.
The molecules listed here are annotated with their GI50.

{"columns": ["molecule", "target-or-test-system", "GI50"],
 "data": [
  ["NS(=O)(=O)c1nnc(NC(=O)CCC(=O)O)s1", "RPMI-8226", "> 100 µM (inactive)"]
]}

QUERY: Can you look up the measured GI50 of c1ccc2c(c1)nc1n2CCCn2ccnc2-1 for me?
RESULT: > 100 µM (inactive)

QUERY: Can you look up the measured GI50 of CC1=CC2(O)OC3(CC2=C(C)C)C(C)CCC13 (stereo unspecified) for me?
RESULT: > 100 µM (inactive)

QUERY: Can you look up the measured GI50 of N#CC(C(=O)/C(=N\Nc1nc(S)nn1N)C(C#N)c1ccc(Cl)cc1)c1ccc(Cl)cc1 (stereo unspecified) for me?
RESULT: > 100 µM (inactive)

QUERY: Can you look up the measured GI50 of CC(C)C(/C=C/c1ccccc1)=N\NC(=O)N/N=C(/C=C/c1ccccc1)C(C)C for me?
RESULT: 24.3 µM (inactive)

QUERY: Can you look up the measured GI50 of COCC(=O)CP(=O)(OC)OC for me?
RESULT: > 100 µM (inactive)
